- Test system: barnyardgrass (Echinochloa crus-galli)
- Measurement notes: Test A preemergence
- Format: in vivo
- Experimental conditions: Echinochloa crus-galli, pre-emergence, 240 h, 500 g ai/ha, preemergence; 0 to 100 scale where 0 is no effect and 100 is complete control; read-out: Barnyardgrass plant response rating
Entries and their pest or weed control at 500 g/ha
Please give a number only; it is taken to be in %.

# Compound, Value units, Obs value
measured = [
    ("COc1cc([C@H]2CN(C)C(=O)[C@@H]2C(=O)Nc2ccccc2F)cc(OC)c1OC [Compound 1217]", "%", 100),
    ("CSc1ccccc1NC(=O)[C@H]1C(=O)N(C)C[C@@H]1c1ccc(C(F)(F)F)nc1 [Compound 1198]", "%", 100),
    ("CN1C[C@H](c2ccc(F)c(Br)c2)[C@@H](C(=O)Nc2cccc(F)c2F)C1=O [Compound 1234]", "%", 100),
    ("Cc1cc([C@H]2CN(C)C(=O)[C@@H]2C(=O)Nc2ccccc2[S+](C)[O-])ccc1F (stereo partly shown) [Compound 1313]", "%", 100),
    ("O=C1NC[C@H](c2ccc(F)c(OC(F)(F)C(F)F)c2)[C@H]1C(=O)Nc1ccc(F)cc1F (racemic) [Compound 1154]", "%", 90),
]

Q: Query (compound): CC(C)Oc1ccc([C@H]2CNC(=O)[C@@H]2C(=O)Nc2cccc(F)c2F)cc1 [Compound 1136] ; field requested: pest or weed control at 500 g/ha
Result: 90

Q: Query (compound): O=C1NC[C@H](c2ccc3sccc3c2)[C@H]1C(=O)Nc1cccc(F)c1F [Compound 1128] ; field requested: pest or weed control at 500 g/ha
Result: 90

Q: Query (compound): CSc1ccccc1NC(=O)[C@H]1C(=O)N(C)C[C@@H]1c1cccc(C)c1 [Compound 1232] ; field requested: pest or weed control at 500 g/ha
Result: 90

Q: Query (compound): N#Cc1cc([C@H]2CNC(=O)[C@]2(O)C(=O)Nc2ccccc2F)ccc1F [Compound 1200] ; field requested: pest or weed control at 500 g/ha
Result: 0

Q: Query (compound): CN1C[C@H](c2ccc3c(c2)OC(F)(F)O3)[C@@H](C(=O)Nc2ccc(F)c(F)c2F)C1=O [Compound 1204] ; field requested: pest or weed control at 500 g/ha
Result: 90
